Reported melting point values are given for each entry in this list.
Where a name gives a salt, the structure may show the parent alone.
The reply should contain only the number, in °C.

Reference set (4 entries):
>>> quantitative_readout("CCCCCC#CCC(Cc1cccnc1)(C(=O)NO)S(=O)(=O)c1ccc(OC)cc1 (centres unmarked) (as salt: salt) [Example 74]")
65
>>> quantitative_readout("CCC(Cc1ccc(OCCN2CCCCC2)cc1)(C(=O)NO)S(=O)(=O)c1ccc(OC)cc1 (centres unmarked) [Example 34]")
75
>>> quantitative_readout("COc1ccc(S(=O)(=O)C(C)(Cc2cccc(OCCN3CCCCC3)c2)C(=O)NO)cc1 (centres unmarked) [Example 22]")
74
>>> quantitative_readout("COc1ccc(S(=O)(=O)C2(C(=O)NO)CCN(C)CC2)cc1 [Example 97]")
89

Let us examine a further case.
Query: melting point; subject: CCCCOc1ccc(S(=O)(=O)C2(C(=O)NO)CCN(Cc3ccc(OC)cc3)CC2)cc1 (as salt: HCl) [Example 104] 173

----------
Target: MMP 13 (Homo sapiens)
Assay: MMP 13 inhibition (standard/manual test)
Assay type: biochemical
Conditions: 1 micromolar
property.name: MMP 13 % inhibition at 1 micromolar (%)
The reply should contain only the number, in %.

Query: MMP 13 % inhibition at 1 micromolar; subject: CCCCCCCCS(=O)(=O)C(Cc1ccc(OCCN2CCCCC2)cc1)C(=O)NO (centres unmarked) [Example 46] 84.7

----------
Target: TACE (Homo sapiens)
Construct: purchased Immunex
Assay: Procedure for Measuring TACE Inhibition (fluorescent peptidyl substrate)
Format: biochemical
Conditions: 1 micromolar
property.name: TACE % inhibition at 1 micromolar

Reference set (3 entries):
>>> result("COc1ccc(S(=O)(=O)C(C)(Cc2ccc(OCCN3CCCCC3)cc2)C(=O)NO)cc1 (centres unmarked) [Example 17]")
"41.00%"
>>> result("COc1ccc(S(=O)(=O)C2(C(=O)NO)CCN(CC=C(C)C)CC2)cc1 [Example 89]")
"49%"
>>> result("CCCCCCCCS(=O)(=O)C(Cc1ccc(OCCN2CCCCC2)cc1)C(=O)NO (centres unmarked) [Example 46]")
"1.4%"

Let us examine a further case.
Query: TACE % inhibition at 1 micromolar; subject: CC(Cc1ccc(OCCN2CCCCC2)cc1)(C(=O)NO)S(=O)(=O)c1cccs1 (centres unmarked) [Example 45] 20.4%

----------
Molecular target: MMP 9 (Homo sapiens, UniProt P14780)
Construct: from tissue; host or cells: human neutrophils
Sequence (P14780 94-707): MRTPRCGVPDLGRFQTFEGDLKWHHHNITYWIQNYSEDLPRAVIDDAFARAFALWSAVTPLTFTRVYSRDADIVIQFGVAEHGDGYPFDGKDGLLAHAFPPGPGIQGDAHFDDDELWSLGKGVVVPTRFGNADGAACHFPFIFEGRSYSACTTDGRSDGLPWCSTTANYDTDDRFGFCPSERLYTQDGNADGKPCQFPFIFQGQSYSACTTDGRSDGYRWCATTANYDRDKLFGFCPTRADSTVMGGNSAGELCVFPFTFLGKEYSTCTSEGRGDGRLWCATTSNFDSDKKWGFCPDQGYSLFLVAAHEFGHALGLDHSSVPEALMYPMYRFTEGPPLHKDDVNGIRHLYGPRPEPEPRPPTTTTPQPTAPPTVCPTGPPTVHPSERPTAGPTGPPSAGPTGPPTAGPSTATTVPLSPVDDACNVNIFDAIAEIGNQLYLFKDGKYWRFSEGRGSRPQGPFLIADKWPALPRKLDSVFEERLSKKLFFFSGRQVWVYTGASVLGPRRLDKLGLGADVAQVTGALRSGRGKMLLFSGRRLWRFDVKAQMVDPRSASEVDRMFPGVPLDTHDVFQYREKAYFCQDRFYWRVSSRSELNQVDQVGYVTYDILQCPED
Assay: In Vitro Gelatinase Assay (human neutrophil gelatinase B, thiopeptide substrate/DTNB)
Assay type: biochemical
Conditions: solid phase compounds table; read-out: MMP 9
property.name: IC50 (nM)
The reply should contain only the number, in nM.

For MMP 9 (Homo sapiens, UniProt P14780), provide IC50 of CC(=O)Nc1ccc(SC(Cc2ccccc2)C(=O)NO)cc1 (stereo not shown) please. 213

----------
Reported TACE % inhibition at 1 mM values are given for each entry in this list.
Biological target: TACE (Homo sapiens, UniProt P78536)
Construct: purchased Immunex
Sequence (P78536 215-824): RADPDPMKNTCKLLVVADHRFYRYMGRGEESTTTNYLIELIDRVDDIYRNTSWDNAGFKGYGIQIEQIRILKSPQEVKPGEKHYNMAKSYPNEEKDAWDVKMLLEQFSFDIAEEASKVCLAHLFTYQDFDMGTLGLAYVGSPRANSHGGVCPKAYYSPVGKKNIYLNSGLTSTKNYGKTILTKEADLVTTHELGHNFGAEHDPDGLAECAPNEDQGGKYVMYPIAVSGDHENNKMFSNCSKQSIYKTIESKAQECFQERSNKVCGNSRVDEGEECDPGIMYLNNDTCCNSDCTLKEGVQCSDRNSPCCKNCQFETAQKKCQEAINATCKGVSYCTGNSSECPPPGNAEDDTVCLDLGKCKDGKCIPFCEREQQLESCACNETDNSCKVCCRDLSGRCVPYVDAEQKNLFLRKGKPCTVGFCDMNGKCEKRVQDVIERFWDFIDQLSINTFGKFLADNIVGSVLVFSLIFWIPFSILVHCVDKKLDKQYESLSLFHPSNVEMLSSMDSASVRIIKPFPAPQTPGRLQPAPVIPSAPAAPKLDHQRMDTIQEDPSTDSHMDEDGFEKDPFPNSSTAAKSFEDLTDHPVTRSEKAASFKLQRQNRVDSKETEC
Experiment: Procedure for Measuring TACE Inhibition (fluorescent peptidyl substrate)
Assay type: biochemical
Conditions: 1 mM
The reply should contain only the number, in %.

Reference set (5 entries):
>>> quantitative_readout("O=C(CCC(Sc1ccc(Br)cc1)C(=O)NO)NO (stereo not drawn) [Example 134]")
"−9.31"
>>> quantitative_readout("CCCCCCC(Sc1ccc(NS(=O)(=O)CC)cc1)C(=O)NO (stereo not drawn) [Example 234]")
18.4
>>> quantitative_readout("O=C(CCC(Sc1ccccc1C(F)(F)F)C(=O)NO)NO (stereo not drawn) [Example 137]")
13.35
>>> quantitative_readout("CCCCCCC(Sc1nc(-c2ccccc2)cs1)C(=O)NO (stereo not drawn) [Example 172]")
29.4
>>> quantitative_readout("CCCCCCC(C(=O)NO)[S+]([O-])c1ccc(NS(=O)(=O)c2ccc(-c3ccccn3)s2)cc1 (stereo not drawn) [Example 237]")
38.2

Query: TACE % inhibition at 1 mM; subject: CCCCCCC(C(=O)NO)[S+]([O-])c1ccc(NS(=O)(=O)c2cc(Cl)sc2Cl)cc1 (stereo not drawn) [Example 236] 35

Query: TACE % inhibition at 1 mM; subject: CCCCCCC(C(=O)NO)S(=O)(=O)c1ccc(NS(=O)(=O)c2cccc3nsnc23)cc1 (stereo not drawn) [Example 240] 40.3

Query: TACE % inhibition at 1 mM; subject: CCCCCCC(Sc1ccc(OCCCC)cc1)C(=O)NO (stereo not drawn) [Example 200] 37.9

Query: TACE % inhibition at 1 mM; subject: CCCCCCC(Sc1ccc(NS(=O)(=O)c2cc(Cl)sc2Cl)cc1)C(=O)NO (stereo not drawn) [Example 233] 19.8

----------
Molecular target: MMP 13 (Homo sapiens)
Assay: MMP 13 inhibition (standard/manual test)
Type: biochemical
Conditions: read-out: MMP 13 IC 50
pIC50: −log10 of the molar value.
Range-based classes on measured pIC50: c1 = under 7, c2 = from 7 up to 8, c3 = 8 and over

Solved entries (count: 3):
>>> label("COc1ccc([S+]([O-])C(C(=O)NO)c2ccccc2)cc1 (stereo not drawn)")
"c1"
>>> label("CCCCC[C@H](C(=O)NO)[S@+]([O-])c1ccc(OC)cc1 (relative stereo) [Example 81a]")
"c2"
>>> label("CCCC(Cc1ccc(OCCN2CCOCC2)cc1)(C(=O)NO)S(=O)(=O)c1ccc(OC)cc1 (stereo not drawn)")
"c2"

Kindly identify the class of CCN(CC)CCOc1cccc(CC(C)(C(=O)NO)S(=O)(=O)c2ccc(OC)cc2)c1 (stereo not drawn) . c3

----------
Target: MMP 13 (Homo sapiens)
Test: MMP 13 inhibition (HTS)
Assay type: biochemical
Conditions: 0.2 μM
Reported MMP 13 % inhibition at 0.2 μM (HTS) values are given for each entry in this list.
A bare number is not enough; add the unit after it.

Reference set (5 entries):
>>> result("COC(=O)CCC(Sc1ccc(SC)cc1)C(=O)NO (stereo not drawn) [Example 131]")
"71%"
>>> result("O=C(NO)C(Cc1cnc[nH]1)Sc1ccccc1Br (stereo not drawn) [Example 152]")
"9%"
>>> result("CC(C)CCSC(C)C(=O)NO (stereo not drawn) [Example 112]")
"50%"
>>> result("CSc1ccc(SC(COCc2ccccc2)C(=O)NO)cc1 (stereo not drawn) [Example 146]")
"68%"
>>> result("N=C(N)NCCCC(Sc1ccccc1Br)C(=O)NO (stereo not drawn) [Example 157]")
"19%"

Let us examine a further case.
Query: MMP 13 % inhibition at 0.2 μM (HTS); subject: CCCCCCCCC(Sc1cccc(OC)c1)C(=O)NO (stereo not drawn) [Example 140] 29%

----------
Reported melting point values are given for each entry in this list.

>>> result("C=CCC(CC=C)(C(=O)NO)S(=O)(=O)c1ccc(OC)cc1")
"114 to 116 °C"
>>> result("CCCCCC#CCC(CC#CCCCCC)(C(=O)NO)S(=O)(=O)c1ccc(OC)cc1")
"83 to 84 °C"
>>> result("COc1ccc(S(=O)(=O)C(CC=C(C)C)(CC=C(C)C)C(=O)NO)cc1")
"93 to 96 °C"

Query: melting point; subject: CCCCCCCCC(Cc1cccnc1)(C(=O)NO)S(=O)(=O)c1ccc(OC)cc1 (centres unmarked) 62 °C

Query: melting point; subject: COc1ccc(S(=O)(=O)C(CCCc2ccccc2)(CCCc2ccccc2)C(=O)NO)cc1 118 to 120 °C

----------
Reported melting point values are given for each entry in this list.

>>> result("CC#CCC(CC#CC)(C(=O)NO)S(=O)(=O)c1ccc(F)cc1")
"161 to 163 °C"
>>> result("COc1ccc(S(=O)(=O)C2(C(=O)NO)CCN(Cc3ccc(Cl)c(Cl)c3)CC2)cc1")
"192 to 195 °C"

Let us examine a further case.
Query: melting point; subject: COc1ccc(CS(=O)(=O)C(C)(Cc2ccccc2)C(=O)NO)cc1 (stereo not drawn) 58 to 59 °C

----------
Reported MMP 13 % inhibition at 36 nM (HTS) values are given for each entry in this list.
Target: MMP 13 (Homo sapiens)
Assay: MMP 13 inhibition (HTS)
Type: biochemical
Conditions: 36 nM

Reference set (2 entries):
>>> result("CCCCCCC(Sc1nc2ccccc2o1)C(=O)NO (stereo not drawn) [Example 169]")
"28%"
>>> result("CCCCCCC(Sc1nc2ccccc2s1)C(=O)NO (stereo not drawn) [Example 170]")
"32%"

Let us examine a further case.
Query: MMP 13 % inhibition at 36 nM (HTS); subject: CCCCCCC(Sc1nc(-c2ccccc2)cs1)C(=O)NO (stereo not drawn) [Example 172] 34%

----------
Target: TACE (Homo sapiens)
Construct: purchased Immunex
Assay: Procedure for Measuring TACE Inhibition (fluorescent peptidyl substrate)
Type: biochemical
Details: read-out: TACE IC 50
pIC50: −log10 of the molar value.
# label = t if pIC50 >= 7 else f

>>> label("COc1ccc(S(=O)(=O)C(C)(CC=C(C)C)C(=O)NO)cc1 (centres unmarked)")
"f"
>>> label("COc1ccc(S(=O)(=O)C(C/C=C(\\C)CCC=C(C)C)(Cc2ccc(OCCN3CCOCC3)cc2)C(=O)NO)cc1 (centres unmarked)")
"t"
>>> label("CCCCC[C@H](C(=O)NO)[S@+]([O-])c1ccc(OC)cc1 (relative stereo) [Example 81a]")
"t"

Decide: is the reported value of pIC50 for CC(C)=CCC(CC=C(C)C)(C(=O)NO)S(=O)(=O)c1ccc(C)cc1 equal to or greater than 7? t

Decide: is the reported value of pIC50 for COc1ccc(S(=O)(=O)C2(C(=O)NO)CCN(C(C)C)CC2)cc1 equal to or greater than 7? t
